Test system: MCF-7 cells
EXPERIMENTAL PROTOCOL: In vitro cell proliferation assay II (BrdU incorporation)
Type: cell-based
EXPERIMENTAL CONDITIONS: Homo sapiens, MCF7; MCF-7, 48 hours with compound, 2 hour BrdU labelling, ELISA; read-out: concentration giving 50% inhibition of BrdU incorporation
Description: (b) In Vitro Cell Proliferation Assays These and other assays can be used to determine the ability of a test compound to inhibit the growth of adherent mammalian cell lines, for example the human tumour cell line MCF7. This assay determines the ability of at test compound to inhibit the incorporation of the thymidine analogue, 5′-bromo-2′-deoxy-uridine (BrdU) into cellular DNA. […] The optical density of the wells was then determined at 690 nm wavelength using a Titertek Multiscan plate reader. […]
READOUT NAME: IC50 (nM)

O=C(Nc1ncc(Nc2ccnc3cc(OCCCN4CCOCC4)ccc23)cn1)c1ccccc1 :: 190
COc1cc2c(Nc3cnc(NC(=O)c4ccccc4)nc3)ccnc2cc1OCCCN1CCOCC1 :: 460
